# tested.target: chimeric Caspase-9 polypeptide
# Sequence (as listed by the source, change not shown): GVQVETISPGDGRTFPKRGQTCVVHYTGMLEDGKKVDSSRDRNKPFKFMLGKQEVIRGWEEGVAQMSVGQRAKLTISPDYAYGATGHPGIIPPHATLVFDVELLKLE
# procedure.summary: Caspase mutant classes and basal activity (Table 3)
# Assay type: cell-based, human
# protocol.conditions: class heading of Table 3; ligand IC50

- molecule: "N405Q (protein) GFGDVGALESLRGNADLAYILSMEPCGHCLIINNVNFCRESGLRTRTGSNIDCEKLRRRFSSLHFMVEVKGDLTAKKMVLALLELAQQDHGALDCCVVVILSHGCQASHLQFPGAVYGTDGCPVSVEKIVNIFNGTSCPSLGGKPKLFFIQACGGEQKDHGFEVASTSPEDESPGSNPEPDATPFQEGLRTFDQLDAISSLPTPSDIFVSYSTFPGFVSWRDPKSGSWYVETLDDIFEQWAHSEDLQSLLLRVANAVSVKGIYKQMPGCFQFLRKKLFFKTS"
  IC50: "higher IC50"
- molecule: "D330N (protein) GFGDVGALESLRGNADLAYILSMEPCGHCLIINNVNFCRESGLRTRTGSNIDCEKLRRRFSSLHFMVEVKGDLTAKKMVLALLELAQQDHGALDCCVVVILSHGCQASHLQFPGAVYGTDGCPVSVEKIVNIFNGTSCPSLGGKPKLFFIQACGGEQKDHGFEVASTSPEDESPGSNPEPDATPFQEGLRTFDQLNAISSLPTPSDIFVSYSTFPGFVSWRDPKSGSWYVETLDDIFEQWAHSEDLQSLLLRVANAVSVKGIYKQMPGCFNFLRKKLFFKTS"
  IC50: "higher IC50"
